Assignment: determine reported growth inhibition for the given molecules.
test: inhibition of 3D7 malaria parasite growth – strain 3D7 (AID 2306);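 further: 0% = DMSO wells and 100% = chloroquine plus artemisinin control wells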; details: P. falciparum 3D7 erythrocytic growth, LDH absorbance, 72 h; at 2 µM; active compounds read high
Activity calls are given as the source filed them. How the calls were made is not given here.

q: # return recorded growth inhibition for entry O=C(Nc1ccccc1)N1CCOC(CCN2CCC(F)(F)CC2)(c2ccc(Cl)c(Cl)c2)C1 (centres undefined)
a: 102% (active)

q: # return recorded growth inhibition for entry CC(C)Oc1ccc(C=CC(=O)Nc2noc3ccccc23)cc1
a: 96% (active)

q: # return recorded growth inhibition for entry O=C(/C=C/c1ccc(Cl)c(Cl)c1)NCCCCCN1CCC(NC(=O)Nc2cc(F)ccc2F)CC1
a: 98% (active)

q: # return recorded growth inhibition for entry O=C(/C=C/C=C/c1ccccc1)NCCCCCN1CCC(c2c[nH]c3ccccc23)CC1
a: 85% (active)

q: # return recorded growth inhibition for entry O=C(Nc1ccnc(N2C[C@H]3C[C@@H]2CN3Cc2cccc(O)c2)c1)c1ccc(F)cc1
a: 92% (active)

q: # return recorded growth inhibition for entry O=C(Nc1cccc(F)c1)NC1CCN(CCCCCNC(=O)[C@@H]2C[C@H]2c2ccc(Cl)c(Cl)c2)CC1
a: 101% (active)

q: # return recorded growth inhibition for entry OCC1CCN(Cc2cccc(-c3ccc(-c4nc5ccc(C(F)(F)F)cc5[nH]4)s3)c2)CC1
a: 99% (active)

q: # return recorded growth inhibition for entry COc1cc2nc(N3CCC(CNC(=O)c4cccc5cc[nH]c45)CC3)nc(N)c2cc1OC
a: 98% (active)

q: # return recorded growth inhibition for entry Cc1cccc2[nH]c(-c3ccc(-c4ccc(CNCCCN5CCCC5=O)cc4)cc3)nc12
a: 100% (active)
